Measured CDC EC50 of individual entries
TARGET DESC: human Claudin18.2 (human)
RUN DESCRIPTION: cell-based or functional assay
Respond with the bare value in µg/mL.

Solved entries (count: 5):
BINDER	TEST READOUT	READING UNIT	NUMBER
252F1B10 (antibody, V domains shown) VH: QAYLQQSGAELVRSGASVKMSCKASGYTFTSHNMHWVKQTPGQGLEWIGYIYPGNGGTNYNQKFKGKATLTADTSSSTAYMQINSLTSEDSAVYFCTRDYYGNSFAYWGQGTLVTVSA VL: DIVMTQSPSSLTEKAGERVSMSCKSSQSLFNSGNQKNYLTWYQQKPGQPPKLLIYWASTRESGVPDRFTGSGSGTDFTLTISSVQAEDLAVYYCQNDYRYPFTFGAGTKLELK	CDC EC50	µg/mL	1.76
425B3D5 (antibody, V domains shown) VH: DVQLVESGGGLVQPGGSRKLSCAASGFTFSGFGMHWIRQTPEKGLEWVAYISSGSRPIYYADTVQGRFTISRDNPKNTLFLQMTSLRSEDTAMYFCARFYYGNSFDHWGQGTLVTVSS VL: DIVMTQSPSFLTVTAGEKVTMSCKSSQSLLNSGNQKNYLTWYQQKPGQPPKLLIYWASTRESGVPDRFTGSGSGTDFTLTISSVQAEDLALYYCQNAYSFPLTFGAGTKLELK	CDC EC50	µg/mL	3.02
234B9D4 (antibody, V domains shown) VH: EIQLQQSGPDLMKPGSSVKISCTASGYSFTSYYIHWVKQSHGKTLEWIGYIDPFNGGTRYNQKFEGKAALTVDKSSTTAYMHLTSLTSDDSAVYYCASLRFFTYWGQGTLVTVSA VL: DIVMTQSPSSLTVTAGEKVTMTCKSSQSLLNSGNQENYLTWYQQKPGQPPKLLISRASTRQSGVPDRFTGSGSGTDFTLTISSVQAEDLAVYYCQNDYSYPLTFGAGTKLELK	CDC EC50	µg/mL	0.287
410D9G2 (antibody, V domains shown) VH: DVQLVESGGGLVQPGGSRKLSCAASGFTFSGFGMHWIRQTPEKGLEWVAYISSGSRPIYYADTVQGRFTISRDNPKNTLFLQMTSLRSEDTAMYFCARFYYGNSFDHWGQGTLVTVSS VL: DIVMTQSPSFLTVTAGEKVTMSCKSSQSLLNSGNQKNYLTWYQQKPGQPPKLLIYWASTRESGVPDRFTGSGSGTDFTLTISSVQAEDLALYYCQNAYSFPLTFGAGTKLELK	CDC EC50	µg/mL	2.97
420F12G8 (antibody, V domains shown) VH: DVQLVESGGGLVQPGGSRKLSCAASGFAFSGFGMHWIRQTPEKGLEWVAYISSGSRPIYYADTVKGRFTISRDNPKNTLFLQMTSLRSEDTAMYFCVRFYYGNSFDHWGQGTLVTVSA VL: DIVMTQSPSFLTVTAGEKVTMTCRSSQNLLNSGNQKNYLTWYQQKPGQPPKLLISWASTRESGVPDRFTGSGSGTDFTLTISSVQPEDLALYYCQNAYSFPFTFGAGTKLELK	CDC EC50	µg/mL	3.27

Please look up its CDC EC50: 237D2A4 (antibody, V domains shown) VH: QVQLKESGPGLVAPSQSLSITCTVSGFSLTSYGVSWVRQPPGKGLEWLGVIWGDGSTNYHSTLISRLRISKDKSKSQVFLKLNSLQTDDTATYYCAKAGRGNALDYWGQGTSVTVSS VL: DIVMTQSPSSLTVTAGEKVTMSCKSSQSLLNSGNQKNYLTWYQQKPGQPPKLLIYWASTRESGVPDRFTGSGSGTDFTLTISSVQAEDLAVYYCQNDYSFPLTFGAGTKLELK
0.221

Please look up its CDC EC50: 181C7B2 (antibody, V domains shown) VH: QVQLKQSGPGLVQPSQSLSITCTVSGFSLTYYGVHWVRQSPGKGLEWLGVIWRGGNTDYNAAFISRLSINKDNSKSQVFFKMNSLQPNDTAIYYCARAAYYGNCFDYWGQGTTLTVSS VL: DIVMTQSPSSLTVTAGEKVTMSCKSSQSLLNSGNQKNYLTWYQQKPGQPPKLLIYWASTRESGVPDRFTGSGSGTDFTLTISSVQAEDLAVYYCQNNYIYPLTFGAGTKLELK
3.59
